The measured values listed here are drawn from patent US20100190813A1.

# Measured on: σ2-receptor (Rattus norvegicus)
# Construct: the σ2-Receptorpreparation was prepared from rat liver; from tissue; host or cells: rat liver membrane homogenate
# Sequence (Q5U3Y7 1-176): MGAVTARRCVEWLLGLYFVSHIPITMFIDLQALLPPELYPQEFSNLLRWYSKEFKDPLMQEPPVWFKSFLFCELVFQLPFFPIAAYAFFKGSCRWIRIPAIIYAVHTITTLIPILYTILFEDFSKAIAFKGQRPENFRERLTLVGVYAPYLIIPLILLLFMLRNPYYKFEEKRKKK
# Assay method text: Sigma 2 receptor binding (Version B), [3H]-Ditolylguanidin displacement
# Condition info: version B; rat liver preparation; compound at 1 μM; read-out: Binding σ2 *[Inhibition at 1 μM]
# Method: In brief the σ2-Receptorpreparation was prepared from rat liver. The livers were homogenized in 5 to 6 times of volume sucrose solution (0.32M) and homogenized. The homogenate was centrifuged at 2900 rpm, 4° C., 10 min). the supernatant was centrifuged again (31000×g, 4° C., 20 min). […] Then the protein content was measured (approx. 2 mg/mL) and the homogenate frozen at −80° C. for later use. […]
Measured inhibition at 1 µM, listed per entry.
Measured metric: inhibition at 1 µM (%)

Compound: COC1Cc2sc(C#N)cc2C2(CCN(Cc3ccccc3)CC2)O1 (stereo not drawn)
Measured metric: inhibition at 1 µM
Experimental result: 16
--
Compound: N#CCC1Cc2sccc2C2(CCN(Cc3ccccc3)CC2)O1 (stereo not drawn)
Measured metric: inhibition at 1 µM
Experimental result: 6
--
Compound: OCCC1Cc2sccc2C2(CCN(Cc3ccccc3)CC2)O1 (stereo not drawn)
Measured metric: inhibition at 1 µM
Experimental result: 11
--
Compound: COC1Cc2sc(C=NO)cc2C2(CCN(Cc3ccccc3)CC2)O1 (mixture of isomers)
Measured metric: inhibition at 1 µM
Experimental result: 2
--
Compound: CCOC(=O)C1Cc2sccc2C2(CCN(Cc3ccccc3)CC2)O1 (stereo not drawn)
Measured metric: inhibition at 1 µM
Experimental result: 0
--
Compound: COC1Cc2sccc2C2(CCNCC2)O1 (stereo not drawn)
Measured metric: inhibition at 1 µM
Experimental result: 17
--
Compound: NC(=O)C1Cc2sccc2C2(CCN(Cc3ccccc3)CC2)O1 (stereo not drawn)
Measured metric: inhibition at 1 µM
Experimental result: 63
--
Compound: COC1Cc2sc(Cl)cc2C2(CCN(Cc3ccccc3)CC2)O1 (stereo not drawn)
Measured metric: inhibition at 1 µM
Experimental result: 49
--
Compound: COC(=O)c1cc2c(s1)CC(OC)OC21CCN(Cc2ccccc2)CC1 (stereo not drawn)
Measured metric: inhibition at 1 µM
Experimental result: 45
